testedSystem: Metabotropic glutamate receptor 5 (Mus musculus, UniProt Q3UVX5)
Sequence (Q3UVX5 whole entry): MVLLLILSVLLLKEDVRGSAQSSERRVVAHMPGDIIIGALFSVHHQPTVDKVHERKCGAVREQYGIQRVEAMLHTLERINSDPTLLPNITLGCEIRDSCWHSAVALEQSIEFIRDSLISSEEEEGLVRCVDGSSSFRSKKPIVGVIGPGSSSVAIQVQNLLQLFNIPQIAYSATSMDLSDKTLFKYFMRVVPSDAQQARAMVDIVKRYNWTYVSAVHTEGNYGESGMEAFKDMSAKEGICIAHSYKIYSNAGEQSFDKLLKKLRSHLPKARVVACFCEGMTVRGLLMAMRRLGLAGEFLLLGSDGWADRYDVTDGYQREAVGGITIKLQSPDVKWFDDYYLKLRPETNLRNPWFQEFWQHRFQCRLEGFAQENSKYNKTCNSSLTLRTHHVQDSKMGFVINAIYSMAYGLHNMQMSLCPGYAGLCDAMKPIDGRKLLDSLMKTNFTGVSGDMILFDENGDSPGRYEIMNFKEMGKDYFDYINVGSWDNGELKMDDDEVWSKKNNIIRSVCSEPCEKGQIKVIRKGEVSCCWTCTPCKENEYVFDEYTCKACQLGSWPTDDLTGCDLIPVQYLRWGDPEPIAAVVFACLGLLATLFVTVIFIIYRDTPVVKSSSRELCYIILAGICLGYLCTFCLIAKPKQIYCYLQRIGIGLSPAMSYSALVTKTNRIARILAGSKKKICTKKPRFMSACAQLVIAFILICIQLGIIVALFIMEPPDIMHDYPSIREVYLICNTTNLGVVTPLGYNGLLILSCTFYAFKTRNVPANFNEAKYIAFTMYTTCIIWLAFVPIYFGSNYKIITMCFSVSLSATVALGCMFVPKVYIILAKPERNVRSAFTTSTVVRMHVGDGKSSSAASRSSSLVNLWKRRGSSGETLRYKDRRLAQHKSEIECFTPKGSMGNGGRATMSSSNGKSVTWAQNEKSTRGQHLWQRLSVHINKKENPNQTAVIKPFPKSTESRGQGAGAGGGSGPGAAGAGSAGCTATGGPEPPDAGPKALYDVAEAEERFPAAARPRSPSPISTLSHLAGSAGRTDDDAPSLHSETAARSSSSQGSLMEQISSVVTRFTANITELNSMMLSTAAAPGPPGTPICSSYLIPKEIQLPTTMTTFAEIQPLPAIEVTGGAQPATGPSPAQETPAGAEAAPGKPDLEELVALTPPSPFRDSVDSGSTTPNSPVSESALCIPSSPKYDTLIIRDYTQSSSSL
testProtocol: Positive allosteric modulation at mGluR5 in mouse BV2 cells assessed as inhibition of LPS-induced NO production incubated for 1 hr prior to LPS challenge measured after 24 hrs by Griess assay
pIC50: −log10 of the molar value.
readoutLabel: pIC50

compound | recordedMeasurement
COc1cc(Br)ccc1NC(=O)[C@H]1C[C@@H]1c1cccc(Cl)c1 (racemic) | 3.64
O=C(Nc1ccc(F)cc1)[C@H]1C[C@@H]1c1cccc(Cl)c1 (relative stereo) | 4.24
O=C(N[C@H]1C[C@@H]1c1cccc(F)c1)c1cccc(F)c1 (racemic) | 4.52

(a) COc1cc(Br)ccc1NC(=O)[C@H]1C[C@@H]1c1cccc(F)c1 (racemic)
(b) O=C(N[C@H]1C[C@@H]1c1cccc(F)c1)c1cccc(Cl)c1 (relative stereo)
Please indicate which has the smaller reported pIC50: a , or b . Refer to your chosen entry by its label in the reply.
b

###

testedSystem: Metabotropic glutamate receptor 5 (Mus musculus, UniProt Q3UVX5)
testProtocol: Positive allosteric modulation at mGluR5 in mouse BV2 cells assessed as inhibition of LPS-induced NO production incubated for 1 hr prior to LPS challenge measured after 24 hrs by Griess assay
pIC50: −log10 of the molar value.
readoutLabel: pIC50

compound | pIC50
O=C(Nc1nc2ccccc2[nH]1)[C@H]1C[C@@H]1c1cccc(Cl)c1 (racemic) | 4.17

(P) O=C(Nc1nc2ccccc2s1)[C@H]1C[C@@H]1c1cccc(F)c1 (racemic)
(Q) O=C(N[C@H]1C[C@@H]1c1cccc(F)c1)c1cccc([N+](=O)[O-])c1 (racemic)
(R) O=C(Nc1nc2ccccc2[nH]1)[C@H]1C[C@@H]1c1cccc(F)c1 (racemic)
Give the ascending ranking of the items by reported pIC50. Please, when replying, give the labels in the order that was requested.
Q, P, R

(P) O=C(Nc1ccccc1F)[C@H]1C[C@@H]1c1cccc(F)c1 (racemic)
(Q) O=C(Nc1ccccc1Cl)[C@H]1C[C@@H]1c1cccc(Cl)c1 (relative stereo)
Returns: the argument ( P or Q ) having the larger pIC50. Kindly state the label of the option you pick.
Q
(Q: 4.15, P: 3.68)

###

System: mGluR5
testProtocol: Selectivity index, ratio of cytotoxicity for mouse BV2 cells to IC50 for mGluR5 in mouse BV2 cells
Format: toxicity, cell-based, BV-2
measurementParameters: read-out: Selectivity Index
readoutLabel: selectivity ratio
I only need the number, thanks.

These solved cases illustrate the format of a correct answer.
compound | readoutLabel | recordedMeasurement
COc1cc(Br)ccc1NC(=O)[C@H]1C[C@@H]1c1cccc(Cl)c1 (racemic) | selectivity ratio | 4.37
O=C(N[C@H]1C[C@@H]1c1cccc(F)c1)c1cccc([N+](=O)[O-])c1 (racemic) | selectivity ratio | 3.01
O=C(N[C@H]1C[C@@H]1c1cccc(F)c1)c1cccc(Cl)c1 (relative stereo) | selectivity ratio | 5.03

Complete the entry with selectivity ratio for O=C(Nc1nc2ccccc2[nH]1)[C@H]1C[C@@H]1c1cccc(F)c1 (racemic)
14.6

###

# key: entry, value: Cytotoxic concentration
testProtocol: Cytotoxicity against mouse BV2 cells assessed as cell viability by cytotox nonradioactive assay
Format: cell-based
measurementParameters: bv-2
Respond numerically; units are µM and should not be typed.

molecule | Cytotoxic concentration / µM
O=C(N[C@H]1C[C@@H]1c1cccc(F)c1)c1cccc([N+](=O)[O-])c1 (racemic) | 400

Specify reported Cytotoxic concentration for the molecule shown: O=C(Nc1ccc(F)cc1)[C@H]1C[C@@H]1c1cccc(F)c1 (racemic)
1000

Using known records, supply Cytotoxic concentration for O=C(Nc1ccccc1F)[C@H]1C[C@@H]1c1cccc(F)c1 (racemic)
1000

Provide one value: measured Cytotoxic concentration of COc1cc(Br)ccc1NC(=O)[C@H]1C[C@@H]1c1cccc(F)c1 (racemic)
1000

Read off the recorded Cytotoxic concentration for O=C(Nc1nc2ccccc2[nH]1)[C@H]1C[C@@H]1c1cccc(Cl)c1 (racemic)
400

Read off the recorded Cytotoxic concentration for `Fc1cccc(/C=N/N=C/c2cccc(F)c2)c1`
500

Quote Cytotoxic concentration reported for O=C(Nc1ccc(F)cc1)[C@H]1C[C@@H]1c1cccc(Cl)c1 (relative stereo) please.
1000

# return recorded Cytotoxic concentration for input COc1cc(Br)ccc1NC(=O)[C@H]1C[C@@H]1c1cccc(Cl)c1 (racemic)
1000

Give the reported Cytotoxic concentration for this molecule. O=C(N[C@H]1C[C@@H]1c1cccc(F)c1)c1ccc([N+](=O)[O-])cc1 (racemic)
200

For the molecule O=C(Nc1ccccc1Cl)[C@H]1C[C@@H]1c1cccc(Cl)c1 (relative stereo) , report Cytotoxic concentration.
1000

Give Cytotoxic concentration for O=C(Nc1nc2ccccc2s1)[C@H]1C[C@@H]1c1cccc(F)c1 (racemic)
300

Consider the molecule O=C(N[C@H]1C[C@@H]1c1cccc(F)c1)c1ccccn1 (racemic) . State its measured Cytotoxic concentration.
800
